TARGET OR TEST SYSTEM: KRas G13D (Homo sapiens, UniProt P01116, G13D)
Sequence (P01116 1-169 isoform P01116-2 G13D): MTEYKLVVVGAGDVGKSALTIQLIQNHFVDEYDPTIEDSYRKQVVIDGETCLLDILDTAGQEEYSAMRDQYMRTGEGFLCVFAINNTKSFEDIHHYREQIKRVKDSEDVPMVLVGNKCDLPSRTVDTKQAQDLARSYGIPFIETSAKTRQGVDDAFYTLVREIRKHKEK
Format: binding
EXPERIMENTAL CONTEXT: single point, 10 nM compound, read-out: Binding to KRas (% inhibition at 10 nM) G13D
Reported inhibition at 0.01 µM is given for each of the following compounds.
Give the value, in units of %, as a plain number.

COMPOUND	UNIT TAG	inhibition at 0.01 µM
CCc1c(F)ccc2cc(O)cc(N3CCc4c(nc(OC[C@@]56CCCN5C[C@H](F)C6)nc4N4CCCn5nc(C(=O)NCCOCCOC)cc5C4)C3)c12	%	94

In plain terms, CCc1c(F)ccc2cc(O)cc(N3CCc4c(nc(OC[C@@]56CCCN5C[C@H](F)C6)nc4N4CCCn5nc(C(=O)N6C[C@H](C)N[C@@H](C)C6)cc5C4)C3)c12 has a documented inhibition at 0.01 µM of 99

In plain terms, CCc1c(F)ccc2cc(O)cc(N3CCc4c(nc(OC[C@@]56CCCN5C[C@H](F)C6)nc4N4CCCn5nnc(Br)c5C4)C3)c12 has a documented inhibition at 0.01 µM of 90

In plain terms, CCc1c(F)ccc2cc(O)cc(N3CCc4c(nc(OC[C@@]56CCCN5C[C@H](F)C6)nc4N4CCCn5nc6c(c5C4)CCCN6)C3)c12 has a documented inhibition at 0.01 µM of 50

In plain terms, CCc1c(F)ccc2cc(O)cc(N3CCc4c(nc(OC[C@@]56CCCN5C[C@H](F)C6)nc4N4CCCn5nc(NC)c(F)c5C4)C3)c12 has a documented inhibition at 0.01 µM of 70

In plain terms, CCc1c(F)ccc2cc(O)cc(N3CCc4c(nc(OC[C@@]56CCCN5C[C@H](F)C6)nc4N4CCCn5nc(C(=O)N6CC7CC6C7)cc5C4)C3)c12 has a documented inhibition at 0.01 µM of 96

In plain terms, CCc1c(F)ccc2cc(O)cc(N3CCc4c(nc(OC[C@@]56CCCN5C[C@H](F)C6)nc4N4CCCn5nc(C(=O)N(C)C6CC6)cc5C4)C3)c12 has a documented inhibition at 0.01 µM of 97

In plain terms, CCc1c(F)ccc2cc(O)cc(N3CCc4c(nc(OC[C@@]56CCCN5C[C@H](F)C6)nc4N4CCCn5nc(C(=O)N6CC7CCC6CC7)cc5C4)C3)c12 has a documented inhibition at 0.01 µM of 92

* * *

TARGET OR TEST SYSTEM: KRas G12R (Homo sapiens, UniProt P01116, G12R)
Sequence (P01116 1-169 isoform P01116-2 G12R): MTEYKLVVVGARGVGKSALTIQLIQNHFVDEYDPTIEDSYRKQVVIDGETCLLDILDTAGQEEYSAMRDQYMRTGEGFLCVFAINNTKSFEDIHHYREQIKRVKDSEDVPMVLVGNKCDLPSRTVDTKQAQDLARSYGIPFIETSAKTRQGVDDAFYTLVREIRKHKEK
PROTOCOL DESCRIPTION: biochemical
EXPERIMENTAL CONTEXT: Binding to KRas (IC50 nM) G12R, TR-FRET displacement, KRas G12R
Reported IC50 is given for each of the following molecules.

Some entries whose results are on file:
MOLECULE	PROPERTY MEASURED	RESULT
CCc1c(F)ccc2cc(O)cc(N3CCc4c(nc(OC[C@@]56CCCN5C[C@H](F)C6)nc4NCC4CNS(=O)(=O)N4)C3)c12 (stereo partly shown) [Example 410]	IC50	7 nM
CCc1c(F)ccc2cc(O)cc(N3CCc4c(nc(OC[C@@]56CCCN5C[C@H](F)C6)nc4N4CCCn5nc(C(=O)N6C7CCC6CC7)cc5C4)C3)c12 [Example 340]	IC50	< 2 nM
CCc1c(F)ccc2cc(O)cc(N3CCc4c(nc(OC[C@@]56CCCN5C[C@H](F)C6)nc4N4CCCn5nc(C(=O)NCCOCCOC)cc5C4)C3)c12 [Example 374]	IC50	< 2 nM

# input for lookup
In plain terms, CCc1c(F)ccc2cc(O)cc(N3CCc4c(nc(OC[C@@]56CCCN5C[C@H](F)C6)nc4N4CCCn5nc(C(=O)N(C)C)c(COC)c5C4)C3)c12 [Example 269] has a documented IC50 of < 2 nM

* * *

TARGET OR TEST SYSTEM: KRas G13D (Homo sapiens, UniProt P01116, G13D)
Assay type: binding
EXPERIMENTAL CONTEXT: TR-FRET displacement, read-out: Binding to KRas (IC50 nM) G13D
PROPERTY MEASURED: IC50 (nM)
Give the value, in units of nM, as a plain number.

SMILES CODE	UNIT TAG	QUANTITATIVE RESULT
CCc1cccc2cccc(N3CCc4c(nc(OCC5(CN(C)C)CC5)nc4NCc4nc(C5CC5)n[nH]4)C3)c12	nM	15300

// IC50 (KRas G13D (Homo sapiens, UniProt P01116, G13D)) for CCc1cccc2cccc(N3CCc4c(nc(OCC5(CN(C)C)CC5)nc4NCc4cc(CO)[nH]n4)C3)c12 = 42200

* * *

Test system: H727 cells
PROTOCOL DESCRIPTION: Inhibition of KRas-mediated phosphorylation of ERK (Cisbio HTRF pERK), H727 cells
Assay type: cell-based
EXPERIMENTAL CONTEXT: Homo sapiens, NCI-H727, single point at 100 nM, 3 hrs compound incubation
Label false (0) if inhibition at 0.1 µM falls below 40%; label true (1) in every other case.

Solved cases below.
COMPOUND	ASSIGNED LABEL
CCc1c(F)ccc2cc(O)cc(N3CCc4c(nc(OC[C@@]56CCCN5C[C@H](F)C6)nc4N4CCCCC(COCC(=O)NC)C4)C3)c12 (some centres unmarked) [Example 245]	false (0)
CCc1c(F)ccc2cc(O)cc(N3CCc4c(nc(OC[C@@]56CCCN5C[C@H](F)C6)nc4N4CCCn5nc(C(=O)N6C[C@@H]7C[C@H](C6)[C@H](O)C7)cc5C4)C3)c12 [Example 268]	true (1)
CCc1c(F)ccc2cc(O)cc(N3CCc4c(nc(OC[C@@]56CCCN5C[C@H](F)C6)nc4N4CCCn5nc(C(=O)N6C7CCC6CC7)cc5C4)C3)c12 [Example 340]	true (1)
CC1(O)COCCN(c2nc(OCC34CCCN3CCC4)nc3c2CCN(c2cc(O)cc(Cl)c2C2CC2)C3)C1 (centres unmarked) [Example 436]	false (0)
CCc1c(F)ccc2cc(O)cc(N3CCc4c(nc(OC[C@@]56CCCN5C[C@H](F)C6)nc4N4CCCn5nc(C(=O)N6[C@@H]7CNC[C@H]6C7)cc5C4)C3)c12 [Example 499]	false (0)

Is reported inhibition at 0.1 µM greater than or equal to 40% here: CCc1c(F)ccc2cc(O)cc(N3CCc4c(nc(OC[C@@]56CCCN5C[C@H](F)C6)nc4N4CCCn5nc(C(=O)N6CC7CCC(C7)C6)cc5C4)C3)c12 [Example 302]
true (1)

Is reported inhibition at 0.1 µM greater than or equal to 40% here: O=C1NC(=O)C2CN(c3nc(OCC45CCCN4CCC5)nc4c3CCN(c3cc(O)cc(Cl)c3C3CC3)C4)CC12 (centres unmarked) [Example 445]
false (0)

* * *

Test system: H358 cells
PROTOCOL DESCRIPTION: Inhibition of KRas-mediated phosphorylation of ERK (Cisbio HTRF pERK), H358 cells
Type: cell-based
EXPERIMENTAL CONTEXT: Homo sapiens, NCI-H358, single point at 100 nM, 3 hrs compound incubation
PROPERTY MEASURED: inhibition at 0.1 µM (%)
Give the value, in units of %, as a plain number.

SMILES CODE	UNIT TAG	inhibition at 0.1 µM
CCc1c(F)ccc2cc(O)cc(N3CCc4c(nc(OC[C@@]56CCCN5C[C@H](F)C6)nc4N4CCCn5nnc(Cl)c5C4)C3)c12	%	77

// inhibition at 0.1 µM (H358 cells) for CCc1c(F)ccc2cc(O)cc(N3CCc4c(nc(OC[C@@]56CCCN5C[C@H](F)C6)nc4N4CCCCn5nc(C(=O)N(C)C)cc5C4)C3)c12 = 101

// inhibition at 0.1 µM (H358 cells) for CCc1c(F)ccc2cc(O)cc(N3CCc4c(nc(OC[C@@]56CCCN5C[C@H](F)C6)nc4N4CCCn5nc(C(=O)N6C[C@@H]7C[C@H](C6)[C@H](O)C7)cc5C4)C3)c12 = 104

// inhibition at 0.1 µM (H358 cells) for CCc1c(F)ccc2cc(O)cc(N3CCc4c(nc(OC[C@@]56CCCN5C[C@H](F)C6)nc4N4CCCn5nc(C(=O)N(C)C)c(OC)c5C4)C3)c12 = 97

// inhibition at 0.1 µM (H358 cells) for CCc1c(F)ccc2cc(O)cc(N3CCc4c(nc(OC[C@@]56CCCN5C[C@H](F)C6)nc4N4CCCn5nc(C(=O)N6C7CCC6CC7)cc5C4)C3)c12 = 96

* * *

Reported IC50 is given for each of the following compounds.
TARGET OR TEST SYSTEM: KRas G12C (Homo sapiens, UniProt P01116, G12C)
Sequence (P01116 1-169 isoform P01116-2 G12C): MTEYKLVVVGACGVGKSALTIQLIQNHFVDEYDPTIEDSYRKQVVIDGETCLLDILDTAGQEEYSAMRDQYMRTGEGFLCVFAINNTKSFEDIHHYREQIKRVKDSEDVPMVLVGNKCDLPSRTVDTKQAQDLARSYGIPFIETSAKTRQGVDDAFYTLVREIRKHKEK
Format: binding
EXPERIMENTAL CONTEXT: TR-FRET displacement, read-out: Binding to KRas (IC50 nM) G12C
Give the value, in units of nM, as a plain number.

Some entries whose results are on file:
COMPOUND	UNIT TAG	IC50
CCc1cccc2cccc(N3CCc4c(nc(OCC5(CN(C)C)CC5)nc4N(C)Cc4nnc5c(=O)n(C)ccn45)C3)c12	nM	251
CCc1cccc2cccc(N3CCc4c(nc(OCC5(CN(C)C)CC5)nc4N(C)Cc4nnc5n4CCOC5)C3)c12	nM	1330
CCc1cccc2cccc(N3CCc4c(nc(OCC5(CN(C)C)CC5)nc4NC4CN(C(=O)NC)C4)C3)c12	nM	3410
CCc1cccc2cccc(N3CCc4c(nc(OCC5(CN(C)C)CC5)nc4N4CCn5nncc5C4)C3)c12	nM	37800
Cc1cc2[nH]ncc2c(N2CCc3c(nc(OCC45CCCN4CCC5)nc3N3CC4CC(O)C(C4)C3)C2)c1C (stereo not shown)	nM	1910
O=C1CC2(CCCN(c3nc(OCC45CCCN4CCC5)nc4c3CCN(c3cc(O)cc(Cl)c3C3CC3)C4)C2)N1 (stereo not shown)	nM	3
CCc1cccc2cccc(N3CCc4c(nc(OCC5(CN(C)C)CC5)nc4NCc4nc(C5CC5)n[nH]4)C3)c12	nM	8480
Oc1cc(Cl)c(C2CC2)c(N2CCc3c(nc(OCC45CCCN4CCC5)nc3N3CC4CC(O)C(C4)C3)C2)c1 (stereo not shown)	nM	64
C[C@@H]1C[C@@H]1c1c(Cl)cc(O)cc1N1CCc2c(nc(OC[C@@]34CCCN3C[C@H](F)C4)nc2N2CCCn3nc(C(=O)N(C)C)cc3C2)C1 (stereo in doubt)	nM	2
Cc1cc2[nH]ncc2c(N2CCc3c(nc(OCC45CCCN4CCC5)nc3N3CCCC4(C3)NC(=O)NC4=O)C2)c1C (stereo not shown)	nM	8

In plain terms, CCc1cccc2cccc(N3CCc4c(nc(OCC5(CN(C)C)CC5)nc4N4Cc5cn[nH]c5CC(C)C4)C3)c12 (stereo not shown) has a documented IC50 of 4900

In plain terms, CCc1cccc2cccc(N3CCc4c(nc(OCC5(CN(C)C)CC5)nc4NCc4ccnn4C4CC4(F)F)C3)c12 (stereo not shown) has a documented IC50 of 165
